test-target: T1, IL-1β (UniProt P01584 117-269)
T1 construct: Antigen immobilised on the Biacore chip
assay-text: Biacore, periplasmic extract
reported-endpoint: fold difference in affinity vs original
Note: state the figure and append the unit.

# input binder: XPA23 light chain R31F (Fab, V domains shown) VH: EVQLLESGGGLVQPGGSLRLSCAASGFTFSKYFMFWVRQAPGKGLEWVSVISPSGGMTRYADSVKGRFTISRDNSKNTLYLQMNSLRAEDTAVYYCARVGYGGNSDYWGQGTLVTVSS VL: DIQMTQSPSSVSASVGDRLTIICRASQDINFWLAWYQQTPGNAPKLLIHSATSLQSGVPSRFSGSGSGTDFTLTINSLQPEDFATYYCQQADSFPLTFGGGTKVEIK ; wanted: its fold difference in affinity vs original
0.92 fold

And then XPA23 light chain S93W (Fab, V domains shown) VH: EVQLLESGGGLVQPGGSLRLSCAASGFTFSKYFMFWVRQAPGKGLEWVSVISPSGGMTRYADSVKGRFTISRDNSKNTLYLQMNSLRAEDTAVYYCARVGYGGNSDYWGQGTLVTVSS VL: DIQMTQSPSSVSASVGDRLTIICRASQDINRWLAWYQQTPGNAPKLLIHSATSLQSGVPSRFSGSGSGTDFTLTINSLQPEDFATYYCQQADWFPLTFGGGTKVEIK , what is it?
5.49 fold

Same lookup for XPA23 light chain Q27S (Fab, V domains shown) VH: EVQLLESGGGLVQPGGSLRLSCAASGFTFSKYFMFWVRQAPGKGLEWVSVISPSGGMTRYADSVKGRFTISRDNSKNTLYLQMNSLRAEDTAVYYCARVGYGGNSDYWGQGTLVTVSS VL: DIQMTQSPSSVSASVGDRLTIICRASSDINRWLAWYQQTPGNAPKLLIHSATSLQSGVPSRFSGSGSGTDFTLTINSLQPEDFATYYCQQADSFPLTFGGGTKVEIK , please.
3.3 fold

Data credit: patent US20110118131A1
